Assay Overview: Restrictive medium S. cerevisiae growth inhibition, OD615, pilot screen of yeast lifespan reduction project, restrictive growth control (AID 706);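 note: modified DeaD lifespan yeast strain shifted to restrictive glucose medium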
Experimental Context: OD615, 48 h, at 10 µM, active compounds read high
Below, each of the compounds is paired with its reported growth inhibition value.
Reported Endpoint: growth inhibition (%)

> print(dat)
                                    compound  unit.of.measurement  test.result
 1  COc1ccc(Cl)cc1NC(=O)c1nc2nc(C)cc(C(F)F)n2n1                    %        -10.8
 2  CCc1ccccc1N1CSC2=C(C#N)C(c3ccccc3F)CC(=O)N2C1 (configuration not stated)                    %         35.3
 3  CCN1CCN(C(c2ccccc2)c2sc3nc(C)nn3c2O)CC1 (configuration not stated)                    %          1.3
 4            CSC1=N/C(=C\c2ccc(C)o2)C(=O)S1                    %         1.15
 5   O=C(CCS(=O)CCC(=O)NCc1ccccc1)NCc1ccccc1                    %         6.21
 6  CCC(C)Sc1nnc(Cc2cc(=O)[nH]c(=O)[nH]2)n1-c1ccc(F)cc1 (configuration not stated)                    %         15.2
 7  COc1ccc(C2C(C(N)=O)=C(C)Nc3nc(-c4ccccc4)nn32)cc1OC (configuration not stated)                    %        -8.15
 8  Cn1c(C(=O)NCCCN2CCOCC2)cc2c(=O)n(C)c3ccccc3c21                    %       -0.345
 9   COc1ccccc1N(CC(=O)Nc1ccccc1C)S(C)(=O)=O                    %        -10.8
10         CCS(=O)(=O)N1CCN(c2cccc(C)c2C)CC1                    %        -5.41
11  COC(=O)C1=C(C)N(c2cc(Cl)cc(Cl)c2)C(=O)C1                    %        -18.3
12       O=C(Nc1nnc(-c2ccc(Cl)s2)o1)C1CCCCC1                    %        -4.65
13  CCN1CCN(C(=O)Nc2ccc(Cc3ccc(NC(=O)N4CCN(CC)CC4)cc3)cc2)CC1                    %        -9.14
14  COc1ccc(-c2cn3c(C)c(C(=O)Nc4ccncc4)sc3n2)cc1                    %        -15.3
15  COc1ccc(NC(=O)C2CCCN(S(=O)(=O)c3cccc4cccnc34)C2)c(OC)c1 (configuration not stated)                    %        -2.73
16  Cc1cccc(C2CC(c3ccc(F)cc3)Nc3nc(N)nn32)c1 (configuration not stated)                    %         18.4
17  CCOc1cccc(C(=O)Nc2cccc(-c3nnc(-c4ccccc4)o3)c2)c1                    %         6.69
18   CCOC(=O)Cn1c(=NC(=O)CSC(C)=O)sc2ccccc21                    %         8.74
19  CCOC(=O)N1CCN(c2c(Nc3ccc4c(c3)OCCO4)c(=O)c2=O)CC1                    %         4.07
20  O=C(CSc1nc(-c2ccco2)cc(C(F)(F)F)n1)NC1CCCC1                    %         5.25
21              c1ccc(CNc2nc3ccccc3[nH]2)cc1                    %          2.9
22            CCCc1cc(C(=O)Nc2cccc(Cl)c2)no1                    %        -1.01
23  CN1CCN(C(=O)C2CCC(CNS(=O)(=O)c3cccc4cccnc34)CC2)CC1 (configuration not stated)                    %         2.39
24  Cn1c(=O)c2c(nc(Sc3ncccn3)n2Cc2ccc(Cl)cc2)n(C)c1=O                    %          1.5
25      O=C(c1cc2ccccn2n1)N1CCN(c2ccccn2)CC1                    %         7.25
26              CCOc1ccc(C(F)(F)F)cc1NC(C)=O                    %        -9.57
27  COCCNC(=O)Cn1cc2c(n1)CCC(C)C2 (configuration not stated)                    %       -0.165
28  CCCCn1c(CN2CCN(C(=O)c3ccco3)CC2)nc2c1c(=O)n(C)c(=O)n2C                    %        -7.47
29  CCOc1ccc(C2CC(c3ccc(F)cc3)n3ncnc3N2)cc1 (configuration not stated)                    %        -1.42
30  CC1CCN(CCCNC(=O)CN2CCN(Cc3ccc(Cl)cc3)C2=O)CC1                    %        -8.52
31             CCCN(CCC(=O)Nc1ccccc1F)CC1CC1                    %        -18.1
32  O=C(NC1CCCCC1)C(c1ccccc1)N1CCCC1 (configuration not stated)                    %        -3.42
33  COc1ccc(-c2nnc(COc3ccc4ccccc4c3)o2)cc1OC                    %        -22.7
34           O=C(CSc1ncnc2nc[nH]c12)N1CCOCC1                    %        -14.4
35  Cc1c(C(=O)NCc2ccccn2)sc2nc(-c3ccccc3)cn12                    %         13.1
36    Fc1cccc(Cl)c1CSc1nnnn1-c1ccc2c(c1)OCO2                    %         17.6
37  CCC(Oc1ccccc1)C(=O)Nc1cc(C)on1 (configuration not stated)                    %         -7.2
38         O=C(CSc1nc2ncccc2[nH]1)NCc1ccccc1                    %         13.3
39  CCOC(=O)c1c(C)[nH]c(C(=O)CSc2nnnn2-c2ccccc2)c1C                    %       -0.165
40  CC1(C)C(=O)OC(C(=O)c2ccccc2)C(C)(C)C1=O (configuration not stated)                    %        -6.81
41  Cn1c(NC(=O)C2CCCO2)cc(=O)n(C)c1=O (configuration not stated)                    %         1.36
42             Cc1cccc(OCCSc2cc(C)nc(N)n2)c1                    %        -8.02
43             O=C(Cc1cccs1)NCCn1ccc2ccccc21                    %        -11.5
44  CC(=O)N=C1SC2CS(=O)(=O)CC2N1c1c(Cl)cccc1Cl (configuration not stated)                    %          3.7
45  COc1ccc(C2CC(=O)C3=C(C2)NC(C)=C(C#N)C3c2ccc(N(C)C)cc2)cc1 (configuration not stated)                    %         7.55
46  CC(=O)NC(CCS(C)(=O)=O)C(=O)Nc1cccc(Cl)c1Cl (configuration not stated)                    %        -13.9
47  Cc1cc(NC(=O)CSc2cn(CCNC(=O)c3ccccc3)c3ccccc23)no1                    %       -0.585

###

Below, each of the compounds is paired with its reported inhibition value.
Assay Overview: inhibitors of the yeast RAM network, pilot screen, dse1pr::URA3 reporter, 5-FOA selection (AID 869);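 note: 0% = DMSO wells with no growth and 100% = 10 µM 1-NA-PP1 with full growth; RAM network block rescues cells from 5-FOA so hits raise OD615 growth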
Experimental Context: S. cerevisiae dse1pr::URA3 5-FOA growth, OD615, 2 d; at 10 µM; active compounds read high; strain carries analog-sensitive mutant Cbk1 kinase
Activity calls are given as the source filed them.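 The calls were made as follows: active = inhibition over a set limit, the all-compound mean plus 3 SD, in both replicate runs; inconclusive = over that limit in just one replicate run; inactive = at or under that limit in both runs.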
Reported Endpoint: inhibition

> print(dat)
                                    compound  reported.endpoint         test.result
 1  CCCOc1ccc2ccccc2c1/C=N/n1c(C)nnc1-n1nc(C)cc1C         inhibition   -0.29% (inactive)
 2  CC(=O)N1CCc2c(sc(NC(=O)c3ccc4c(c3)OCCO4)c2C#N)C1         inhibition    2.62% (inactive)
 3              Cc1cccn2cc(-c3ccc(F)cc3)nc12         inhibition    1.56% (inactive)
 4  O=C(O)c1ccccc1SC1CC(=O)N(C2CCCCC2)C1=O (stereo not drawn)         inhibition    1.17% (inactive)
 5  Cn1c(C(=O)NCCN2CCc3ccccc3C2)cc2c(=O)n(C)c3ccccc3c21         inhibition    2.96% (inactive)
 6  CCOC(=O)c1ccc(Nc2ccc(-c3ccc(OC)c(OC)c3)nn2)cc1         inhibition    2.08% (inactive)
 7  CC1(C)Cc2c(C#N)c(N3CCCC3)nc(-c3ccco3)c2CO1         inhibition    1.39% (inactive)
 8  COC(=O)c1ccc2c(c1)NC(=O)C1CCCN21 (stereo not drawn)         inhibition   0.305% (inactive)
 9               CC(=O)CC(=O)Nc1cccc2c1CCCC2         inhibition  -0.665% (inactive)
10          CCN1CCN(CC(=O)NC2CCCC2)C(=O)C1=O         inhibition    1.52% (inactive)
11  Cn1c(Cn2c(=O)sc3ccccc32)nnc1SCC(=O)Nc1ccc(Cl)cc1         inhibition    3.06% (inactive)
12        Cc1cc(C(=O)NCc2ccccc2)c(=O)[nH]c1C         inhibition    2.33% (inactive)
13  CC(C)CC1(C(=O)O)NC(c2ccccc2O)C2C(=O)N(C(C)C)C(=O)C21 (stereo not drawn)         inhibition    1.27% (inactive)
14               CCC(=O)c1ccc(CCCCCC(=O)O)s1         inhibition    1.34% (inactive)
15  O=C(c1ccc(S(=O)(=O)N2CCOCC2)cc1)N1CCN(c2ccccc2)CC1         inhibition    1.82% (inactive)
16  CCOC(=O)CNC(=O)c1cn(CC(C)C)c(=O)c2cc(OC)c(OC)cc12         inhibition  -0.375% (inactive)
17  CCOC(=O)N1CCN(CC(=O)c2ccc3c(c2)CCN3C(C)=O)CC1         inhibition    2.14% (inactive)
18  Cn1c(C(=O)N2CCC(C(=O)N3CCOCC3)CC2)cc2sccc21         inhibition    0.59% (inactive)
19  CCCC1(C(=O)O)NC(c2ccccc2O)C2C(=O)N(c3cccc(Cl)c3)C(=O)C21 (stereo not drawn)         inhibition   0.955% (inactive)
20  CC(=O)c1ccc(NC(=O)CSc2nc3nc(C)cc(C)n3n2)cc1         inhibition    2.34% (inactive)
21        Cn1c(NC(=O)Cc2cccs2)cc(=O)n(C)c1=O         inhibition    1.26% (inactive)
22        CCCCn1c(CNC(=O)C(C)(C)C)nc2ccccc21         inhibition    0.25% (inactive)
23  CC(C)CC(NS(=O)(=O)c1ccc2c(c1)oc(=O)n2C)C(=O)NCc1cccnc1 (stereo not drawn)         inhibition    1.82% (inactive)
